settings: in acetone, 321.45 K
metric-name: solubility (mole fraction)
Give bare numbers.

(Q) Given "O=C(O)/C=C/c1ccccc1Cl" , state its recorded solubility (mole fraction).
(A) 0.0181

###

settings: in acetonitrile, 297.75 K
metric-name: solubility (mole fraction)
One number for each entry.

(Q) Given "O=C(O)/C=C/c1ccccc1Cl" , state its recorded solubility (mole fraction).
(A) 0.000994

###

settings: in 2-pentanone, 288.35 K
metric-name: solubility (mole fraction)
Numbers only.

(Q) Given "O=C(O)/C=C/c1ccccc1Cl" , state its recorded solubility (mole fraction).
(A) 0.00723

###

settings: in acetone, 278.45 K
metric-name: solubility (mole fraction)
One number for each entry.

(Q) Given "O=C(O)/C=C/c1ccccc1Cl" , state its recorded solubility (mole fraction).
(A) 0.00474

###

settings: in n-butanol, 288.35 K
metric-name: solubility (mole fraction)
Numbers only.

(Q) Given "O=C(O)/C=C/c1ccccc1Cl" , state its recorded solubility (mole fraction).
(A) 0.00438

###

settings: in n-propanol, 292.85 K
metric-name: solubility (mole fraction)
Answers are plain numbers.

(Q) Given "O=C(O)/C=C/c1ccccc1Cl" , state its recorded solubility (mole fraction).
(A) 0.0049

###

settings: in toluene, 278.45 K
metric-name: solubility (mole fraction)
Answers are plain numbers.

(Q) Given "O=C(O)/C=C/c1ccccc1Cl" , state its recorded solubility (mole fraction).
(A) 0.000225

###

settings: in acetone, 292.75 K
metric-name: solubility (mole fraction)
Numbers only.

(Q) Given "O=C(O)/C=C/c1ccccc1Cl" , state its recorded solubility (mole fraction).
(A) 0.00771

###

settings: in n-propanol, 307.35 K
metric-name: solubility (mole fraction)
One number for each entry.

(Q) Given "O=C(O)/C=C/c1ccccc1Cl" , state its recorded solubility (mole fraction).
(A) 0.00848

###

settings: in ethyl formate, 297.75 K
metric-name: solubility (mole fraction)

(Q) Given "O=C(O)/C=C/c1ccccc1Cl" , state its recorded solubility (mole fraction).
(A) 0.00285

###

settings: in toluene, 272.15 K
metric-name: solubility (mole fraction)
One number for each entry.

(Q) Given "O=C(O)/C=C/c1ccccc1Cl" , state its recorded solubility (mole fraction).
(A) 0.000149

###

settings: in ethyl formate, 288.35 K
metric-name: solubility (mole fraction)
One number for each entry.

(Q) Given "O=C(O)/C=C/c1ccccc1Cl" , state its recorded solubility (mole fraction).
(A) 0.00193

###

settings: in ethyl formate, 283.35 K
metric-name: solubility (mole fraction)

(Q) Given "O=C(O)/C=C/c1ccccc1Cl" , state its recorded solubility (mole fraction).
(A) 0.00155

###

settings: in ethanol, 272.15 K
metric-name: solubility (mole fraction)
One number for each entry.

(Q) Given "O=C(O)/C=C/c1ccccc1Cl" , state its recorded solubility (mole fraction).
(A) 0.00229

###

settings: in toluene, 292.75 K
metric-name: solubility (mole fraction)
Give bare numbers.

(Q) Given "O=C(O)/C=C/c1ccccc1Cl" , state its recorded solubility (mole fraction).
(A) 0.000538

###

settings: in n-butanol, 283.45 K
metric-name: solubility (mole fraction)
One number for each entry.

(Q) Given "O=C(O)/C=C/c1ccccc1Cl" , state its recorded solubility (mole fraction).
(A) 0.00356

###

settings: in 2-butanone, 321.45 K
metric-name: solubility (mole fraction)
Give bare numbers.

(Q) Given "O=C(O)/C=C/c1ccccc1Cl" , state its recorded solubility (mole fraction).
(A) 0.0183

###

settings: in 2-pentanone, 307.05 K
metric-name: solubility (mole fraction)
One number for each entry.

(Q) Given "O=C(O)/C=C/c1ccccc1Cl" , state its recorded solubility (mole fraction).
(A) 0.0125

###

settings: in 2-butanone, 292.75 K
metric-name: solubility (mole fraction)
Give bare numbers.

(Q) Given "O=C(O)/C=C/c1ccccc1Cl" , state its recorded solubility (mole fraction).
(A) 0.00837

###

settings: in ethanol, 278.45 K
metric-name: solubility (mole fraction)

(Q) Given "O=C(O)/C=C/c1ccccc1Cl" , state its recorded solubility (mole fraction).
(A) 0.00295

###

settings: in isobutanol, 272.15 K
metric-name: solubility (mole fraction)
Answers are plain numbers.

(Q) Given "O=C(O)/C=C/c1ccccc1Cl" , state its recorded solubility (mole fraction).
(A) 0.0013

###

settings: in n-propanol, 312.05 K
metric-name: solubility (mole fraction)
One number for each entry.

(Q) Given "O=C(O)/C=C/c1ccccc1Cl" , state its recorded solubility (mole fraction).
(A) 0.01

###

settings: in n-butanol, 307.35 K
metric-name: solubility (mole fraction)
One number for each entry.

(Q) Given "O=C(O)/C=C/c1ccccc1Cl" , state its recorded solubility (mole fraction).
(A) 0.00895

###

settings: in isopropanol, 321.55 K
metric-name: solubility (mole fraction)
Answers are plain numbers.

(Q) Given "O=C(O)/C=C/c1ccccc1Cl" , state its recorded solubility (mole fraction).
(A) 0.0144

###

settings: in ethyl formate, 272.15 K
metric-name: solubility (mole fraction)
Answers are plain numbers.

(Q) Given "O=C(O)/C=C/c1ccccc1Cl" , state its recorded solubility (mole fraction).
(A) 0.000925

###

settings: in n-butanol, 292.85 K
metric-name: solubility (mole fraction)

(Q) Given "O=C(O)/C=C/c1ccccc1Cl" , state its recorded solubility (mole fraction).
(A) 0.00522

###

settings: in isopropanol, 312.05 K
metric-name: solubility (mole fraction)
One number for each entry.

(Q) Given "O=C(O)/C=C/c1ccccc1Cl" , state its recorded solubility (mole fraction).
(A) 0.0101

###

settings: in isopropanol, 302.95 K
metric-name: solubility (mole fraction)
Give bare numbers.

(Q) Given "O=C(O)/C=C/c1ccccc1Cl" , state its recorded solubility (mole fraction).
(A) 0.00712

###

settings: in toluene, 321.45 K
metric-name: solubility (mole fraction)
One number for each entry.

(Q) Given "O=C(O)/C=C/c1ccccc1Cl" , state its recorded solubility (mole fraction).
(A) 0.00246

###

settings: in methyl acetate, 297.75 K
metric-name: solubility (mole fraction)
One number for each entry.

(Q) Given "O=C(O)/C=C/c1ccccc1Cl" , state its recorded solubility (mole fraction).
(A) 0.00505

###

settings: in 2-pentanone, 272.15 K
metric-name: solubility (mole fraction)

(Q) Given "O=C(O)/C=C/c1ccccc1Cl" , state its recorded solubility (mole fraction).
(A) 0.00424

###

settings: in n-pentanol, 302.95 K
metric-name: solubility (mole fraction)
Numbers only.

(Q) Given "O=C(O)/C=C/c1ccccc1Cl" , state its recorded solubility (mole fraction).
(A) 0.00832

###

settings: in isobutanol, 298.15 K
metric-name: solubility (mole fraction)

(Q) Given "O=C(O)/C=C/c1ccccc1Cl" , state its recorded solubility (mole fraction).
(A) 0.00403

###

settings: in 2-butanone, 312.35 K
metric-name: solubility (mole fraction)
Give bare numbers.

(Q) Given "O=C(O)/C=C/c1ccccc1Cl" , state its recorded solubility (mole fraction).
(A) 0.0145

###

settings: in n-propanol, 316.55 K
metric-name: solubility (mole fraction)

(Q) Given "O=C(O)/C=C/c1ccccc1Cl" , state its recorded solubility (mole fraction).
(A) 0.0117

###

settings: in methyl acetate, 307.05 K
metric-name: solubility (mole fraction)
Numbers only.

(Q) Given "O=C(O)/C=C/c1ccccc1Cl" , state its recorded solubility (mole fraction).
(A) 0.00694

###

settings: in ethyl acetate, 317.05 K
metric-name: solubility (mole fraction)

(Q) Given "O=C(O)/C=C/c1ccccc1Cl" , state its recorded solubility (mole fraction).
(A) 0.0102

###

settings: in acetone, 307.05 K
metric-name: solubility (mole fraction)
Numbers only.

(Q) Given "O=C(O)/C=C/c1ccccc1Cl" , state its recorded solubility (mole fraction).
(A) 0.012

###

settings: in ethyl acetate, 283.35 K
metric-name: solubility (mole fraction)
Numbers only.

(Q) Given "O=C(O)/C=C/c1ccccc1Cl" , state its recorded solubility (mole fraction).
(A) 0.00351

###

settings: in ethanol, 321.55 K
metric-name: solubility (mole fraction)
One number for each entry.

(Q) Given "O=C(O)/C=C/c1ccccc1Cl" , state its recorded solubility (mole fraction).
(A) 0.013

###

settings: in 2-butanone, 307.05 K
metric-name: solubility (mole fraction)
One number for each entry.

(Q) Given "O=C(O)/C=C/c1ccccc1Cl" , state its recorded solubility (mole fraction).
(A) 0.0126

###

settings: in n-pentanol, 283.45 K
metric-name: solubility (mole fraction)
One number for each entry.

(Q) Given "O=C(O)/C=C/c1ccccc1Cl" , state its recorded solubility (mole fraction).
(A) 0.00404

###

settings: in isopentanol, 302.95 K
metric-name: solubility (mole fraction)

(Q) Given "O=C(O)/C=C/c1ccccc1Cl" , state its recorded solubility (mole fraction).
(A) 0.00691

###

settings: in isobutanol, 288.35 K
metric-name: solubility (mole fraction)
Give bare numbers.

(Q) Given "O=C(O)/C=C/c1ccccc1Cl" , state its recorded solubility (mole fraction).
(A) 0.00266

###

settings: in toluene, 312.35 K
metric-name: solubility (mole fraction)

(Q) Given "O=C(O)/C=C/c1ccccc1Cl" , state its recorded solubility (mole fraction).
(A) 0.00156
